# Tested on: SU-DHL-10-epst
# procedure-text: Combination study, ATPLite 72 h, dose matrix (Synergy Score, CI50)
# condition-summary: combination with Compound 1, 72 h
Where a name gives a salt, the structure may show the parent alone.
measured-quantity: CI50 inhibition

// below: answered compounds
C[C@@H]1C[C@H]2[C@@H]3CCC4=CC(=O)C=C[C@]4(C)[C@@]3(F)[C@@H](O)C[C@]2(C)[C@@]1(O)C(=O)CO [dexamethasone]
S (S=0.01 to <0.5)
CC(C)C[C@H](NC(=O)[C@H](Cc1ccccc1)NC(=O)c1cnccn1)B(O)O [bortezomib]
U (U=0.7 to <1)
CS(=O)(=O)N1CCN(Cc2cc3nc(-c4cccc5[nH]ncc45)nc(N4CCOCC4)c3s2)CC1 [GDC-0941]
T (T=0.5 to <0.7)
Nc1ncn([C@@H]2O[C@H](CO)[C@@H](O)[C@H]2O)c(=O)n1 [Azacitidine]
S (S=0.01 to <0.5)
NC1(c2ccc(-c3nc4ccn5c(=O)[nH]nc5c4cc3-c3ccccc3)cc2)CCC1 [MK-2206]
S (S=0.01 to <0.5)

Incoming: Determine its reported CI50 inhibition: CO[C@H]1C[C@@H]2CC[C@@H](C)[C@@](O)(O2)C(=O)C(=O)N2CCCC[C@H]2C(=O)O[C@H]([C@H](C)C[C@@H]2CC[C@@H](OCCO)[C@H](OC)C2)CC(=O)[C@H](C)/C=C(\C)[C@@H](O)[C@@H](OC)C(=O)[C@H](C)C[C@H](C)/C=C/C=C/C=C/1C [everolimus]
Outgoing: S (S=0.01 to <0.5)

Incoming: Determine its reported CI50 inhibition: CC(C)C[C@H](NC(=O)[C@H](CCc1ccccc1)NC(=O)CN1CCOCC1)C(=O)N[C@@H](Cc1ccccc1)C(=O)N[C@@H](CC(C)C)C(=O)[C@@]1(C)CO1 [carfilzomib]
Outgoing: U (U=0.7 to <1)

Incoming: Determine its reported CI50 inhibition: Nc1cccc2c1CN(C1CCC(=O)NC1=O)C2=O (stereo not drawn) [lenalidomide]
Outgoing: T (T=0.5 to <0.7)

Incoming: Determine its reported CI50 inhibition: COc1cccc2c1C(=O)c1c(O)c3c(c(O)c1C2=O)C[C@@](O)(C(=O)CO)C[C@@H]3O[C@H]1C[C@H](N)[C@H](O)[C@H](C)O1 [Doxorubicin HCl]
Outgoing: T (T=0.5 to <0.7)

Incoming: Determine its reported CI50 inhibition: CCCCCCCCCCCCCCCCCCOP(=O)([O-])OC1CC[N+](C)(C)CC1 [perifosine]
Outgoing: U (U=0.7 to <1)

###

# Test system: HH
# procedure-text: Combination study, ATPLite 72 h, dose matrix (Synergy Score, CI50)
# Format: cell-based
# condition-summary: combination with Compound 1
measured-quantity: Synergy Score inhibition

// below: answered compounds
CCCCCCCCCCCCCCCCCCOP(=O)([O-])OC1CC[N+](C)(C)CC1 [perifosine]
A2 (A2=1 to <3)
O=C(NOC[C@H](O)CO)c1ccc(F)c(F)c1Nc1ccc(I)cc1F [PD0325901]
A1 (A1=0.0001 to <1)
O=C(Nc1ccc2[nH]nc(-c3ccncc3)c2c1)[C@@H]1CCN(CC(=O)N2CCN(c3ccc(-c4ncccn4)cc3)CC2)C1 [SCH772984]
A1 (A1=0.0001 to <1)
CO[C@H]1C[C@@H]2CC[C@@H](C)[C@@](O)(O2)C(=O)C(=O)N2CCCC[C@H]2C(=O)O[C@H]([C@H](C)C[C@@H]2CC[C@@H](OCCO)[C@H](OC)C2)CC(=O)[C@H](C)/C=C(\C)[C@@H](O)[C@@H](OC)C(=O)[C@H](C)C[C@H](C)/C=C/C=C/C=C/1C [everolimus]
A2 (A2=1 to <3)

Please turn your attention to the following entry.
Incoming: Determine reported Synergy Score inhibition for CC(C)C[C@H](NC(=O)[C@H](CCc1ccccc1)NC(=O)CN1CCOCC1)C(=O)N[C@@H](Cc1ccccc1)C(=O)N[C@@H](CC(C)C)C(=O)[C@@]1(C)CO1 [carfilzomib] ; test system: HH.
Outgoing: A1 (A1=0.0001 to <1)
